- Tested on: 699152-130-R-J1-PDC complex spheroid growth
- test: Anticancer human tumor 699152-130-R-J1-PDC patient-derived pancreatic carcinoma cell line growth inhibition [AhR]
- run_conditions: second compound 10 µM; first compound 0.001 µM; stronger effect = lower value
endpoint_name: viability, T/C (%)
Express it in %; write the number only.

compound	assay_system	endpoint_name	units_label	data_value
Cn1ncnc1C1c2n[nH]c(=O)c3cc(F)cc(c23)NC1c1ccc(F)cc1 (stereo unspecified) + CC(CO)NC(=O)c1cc(-c2ccc(Cl)cc2)nn(-c2cnn(C)c2)c1=O	699152-130-R-J1-PDC complex spheroid growth	viability, T/C	%	81.3
Cn1ncnc1C1c2n[nH]c(=O)c3cc(F)cc(c23)NC1c1ccc(F)cc1 (stereo unspecified) + Cc1cncc(-c2nc(NCCc3c[nH]c4ccccc34)c3ncn(C(C)C)c3n2)c1	699152-130-R-J1-PDC complex spheroid growth	viability, T/C	%	28.6
CC[C@@]1(O)C(=O)OCc2c1cc1n(c2=O)Cc2cc3c(CN(C)C)c(O)ccc3nc2-1 + Cc1cncc(-c2nc(NCCc3c[nH]c4ccccc34)c3ncn(C(C)C)c3n2)c1	699152-130-R-J1-PDC complex spheroid growth	viability, T/C	%	11.5
CC[C@@]1(O)C(=O)OCc2c1cc1n(c2=O)Cc2cc3c(CN(C)C)c(O)ccc3nc2-1 + Cc1ccccc1N=Nc1ccc(NC(=O)c2ccnn2C)c(C)c1	699152-130-R-J1-PDC complex spheroid growth	viability, T/C	%	117

// Input: Cn1ncnc1C1c2n[nH]c(=O)c3cc(F)cc(c23)NC1c1ccc(F)cc1 (stereo unspecified) + Cc1ccccc1N=Nc1ccc(NC(=O)c2ccnn2C)c(C)c1 . Output its viability, T/C only.
112

// Input: CC[C@@]1(O)C(=O)OCc2c1cc1n(c2=O)Cc2cc3c(CN(C)C)c(O)ccc3nc2-1 + CC(CO)NC(=O)c1cc(-c2ccc(Cl)cc2)nn(-c2cnn(C)c2)c1=O . Output its viability, T/C only.
103

* * *

- System: 699152-130-R-J1-PDC complex spheroid growth
- test: Anticancer human tumor 699152-130-R-J1-PDC cell line growth inhibition [AhR];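 further: compound exposure lasted 7 days after spheroids had grown for 3 days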
- run_conditions: curve of first compound; second compound 0.1 µM
pIC50: −log10 of the molar value.
endpoint_name: pIC50

Below are worked cases with known answers.
compound	endpoint_name	data_value
O=C(C=Cn1cnc(-c2cc(C(F)(F)F)cc(C(F)(F)F)c2)n1)NNc1cnccn1 + Cc1ccccc1N=Nc1ccc(NC(=O)c2ccnn2C)c(C)c1	pIC50	< 5.52
CCN(c1cc(-c2ccc(CN3CCOCC3)cc2)cc(C(=O)NCc2c(C)cc(C)[nH]c2=O)c1C)C1CCOCC1 + Cc1ccccc1N=Nc1ccc(NC(=O)c2ccnn2C)c(C)c1	pIC50	< 5.52

Give pIC50 only, for CC1(C)CCC(CN2CCN(c3ccc(C(=O)NS(=O)(=O)c4ccc(NCC5CCOCC5)c([N+](=O)[O-])c4)c(Oc4cnc5[nH]ccc5c4)c3)CC2)=C(c2ccc(Cl)cc2)C1 + Cc1ccccc1N=Nc1ccc(NC(=O)c2ccnn2C)c(C)c1 , using 699152-130-R-J1-PDC complex spheroid growth data.
< 5.00

* * *

Recorded viability, T/C values for a group of compounds are listed next.
- System: 699152-130-R-J1-PDC complex spheroid growth
- test: Anticancer human tumor 699152-130-R-J1-PDC cell line growth inhibition [AhR];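 further: compound exposure lasted 7 days after spheroids had grown for 3 days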
- run_conditions: second compound 0.316 µM; first compound 0.3 µM; stronger effect = lower value

Below are worked cases with known answers.
compound	data_value
O=C(C=Cn1cnc(-c2cc(C(F)(F)F)cc(C(F)(F)F)c2)n1)NNc1cnccn1 + Cc1cncc(-c2nc(NCCc3c[nH]c4ccccc34)c3ncn(C(C)C)c3n2)c1	76.3%
CCc1c2c(nc3ccc(O)cc13)-c1cc3c(c(=O)n1C2)COC(=O)[C@]3(O)CC + Cc1cncc(-c2nc(NCCc3c[nH]c4ccccc34)c3ncn(C(C)C)c3n2)c1	28.7%
CCN(c1cc(-c2ccc(CN3CCOCC3)cc2)cc(C(=O)NCc2c(C)cc(C)[nH]c2=O)c1C)C1CCOCC1 + Cc1ccccc1N=Nc1ccc(NC(=O)c2ccnn2C)c(C)c1	105%
Nc1ncn(C2CC(O)C(CO)S2)c(=O)n1 (stereo unspecified) + Cc1cncc(-c2nc(NCCc3c[nH]c4ccccc34)c3ncn(C(C)C)c3n2)c1	107%
Nc1ncn(C2CC(O)C(CO)S2)c(=O)n1 (stereo unspecified) + Cc1ccccc1N=Nc1ccc(NC(=O)c2ccnn2C)c(C)c1	90.4%

// Input: CCN(c1cc(-c2ccc(CN3CCOCC3)cc2)cc(C(=O)NCc2c(C)cc(C)[nH]c2=O)c1C)C1CCOCC1 + CC(CO)NC(=O)c1cc(-c2ccc(Cl)cc2)nn(-c2cnn(C)c2)c1=O . Output its viability, T/C only.
94.5%

* * *

- Tested on: 699152-130-R-J1-PDC complex spheroid growth
- test: Anticancer human tumor 699152-130-R-J1-PDC cell line growth inhibition [AhR];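 further: compound exposure lasted 7 days after spheroids had grown for 3 days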
- run_conditions: second compound 10 µM; first compound 0.0316 µM; stronger effect = lower value
endpoint_name: viability, T/C (%)
Express it in %; write the number only.

compound	assay_system	units_label	data_value
CC(C)c1c(-c2ccccc2)nc2c(C#N)c[nH]n2c1=O + CC(CO)NC(=O)c1cc(-c2ccc(Cl)cc2)nn(-c2cnn(C)c2)c1=O	699152-130-R-J1-PDC complex spheroid growth	%	95.6

// Input: O=C(c1cc(Cc2n[nH]c(=O)c3ccccc23)ccc1F)N1CCN(C(=O)C2CC2)CC1 + Cc1cncc(-c2nc(NCCc3c[nH]c4ccccc34)c3ncn(C(C)C)c3n2)c1 . Output its viability, T/C only.
9.79

// Input: Nc1ccccc1NC(=O)c1ccc(CNC(=O)OCc2cccnc2)cc1 + Cc1ccccc1N=Nc1ccc(NC(=O)c2ccnn2C)c(C)c1 . Output its viability, T/C only.
115

* * *

- System: 699152-130-R-J1-PDC complex spheroid growth
- test: Anticancer human tumor 699152-130-R-J1-PDC cell line growth inhibition [AhR];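 further: compound exposure lasted 7 days after spheroids had grown for 3 days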
- run_conditions: second compound 3.16 µM; first compound 0.949 µM; stronger effect = lower value
endpoint_name: viability, T/C (%)
Express it in %; write the number only.

Below are worked cases with known answers.
molecule	viability, T/C [%]
O=C(C=Cn1cnc(-c2cc(C(F)(F)F)cc(C(F)(F)F)c2)n1)NNc1cnccn1 + Cc1cncc(-c2nc(NCCc3c[nH]c4ccccc34)c3ncn(C(C)C)c3n2)c1	76.2
O=C(C=Cn1cnc(-c2cc(C(F)(F)F)cc(C(F)(F)F)c2)n1)NNc1cnccn1 + Cc1ccccc1N=Nc1ccc(NC(=O)c2ccnn2C)c(C)c1	76.4
CCN(c1cc(-c2ccc(CN3CCOCC3)cc2)cc(C(=O)NCc2c(C)cc(C)[nH]c2=O)c1C)C1CCOCC1 + Cc1ccccc1N=Nc1ccc(NC(=O)c2ccnn2C)c(C)c1	99.7
CCN(c1cc(-c2ccc(CN3CCOCC3)cc2)cc(C(=O)NCc2c(C)cc(C)[nH]c2=O)c1C)C1CCOCC1 + CC(CO)NC(=O)c1cc(-c2ccc(Cl)cc2)nn(-c2cnn(C)c2)c1=O	83.6
CCN(c1cc(-c2ccc(CN3CCOCC3)cc2)cc(C(=O)NCc2c(C)cc(C)[nH]c2=O)c1C)C1CCOCC1 + Cc1cncc(-c2nc(NCCc3c[nH]c4ccccc34)c3ncn(C(C)C)c3n2)c1	114

Here is another molecule to look at.
Give viability, T/C only, for O=C(C=Cn1cnc(-c2cc(C(F)(F)F)cc(C(F)(F)F)c2)n1)NNc1cnccn1 + CC(CO)NC(=O)c1cc(-c2ccc(Cl)cc2)nn(-c2cnn(C)c2)c1=O , using 699152-130-R-J1-PDC complex spheroid growth data.
71.2

* * *

- Test system: 699152-130-R-J1-PDC complex spheroid growth
- test: Anticancer human tumor 699152-130-R-J1-PDC cell line growth inhibition [AhR];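 further: compound exposure lasted 7 days after spheroids had grown for 3 days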
- run_conditions: curve of first compound; second compound 0.1 µM
endpoint_name: pIC50
Reminder that pIC50 means the negative base-10 logarithm of the concentration expressed in mol/L.

molecule	endpoint_name	data_value
CCc1c2c(nc3ccc(O)cc13)-c1cc3c(c(=O)n1C2)COC(=O)[C@]3(O)CC + Cc1cncc(-c2nc(NCCc3c[nH]c4ccccc34)c3ncn(C(C)C)c3n2)c1	pIC50	7.41

Here is another molecule to look at.
// Input: Nc1ccn(C2OC(CO)C(O)C2(F)F)c(=O)n1 (stereo not drawn) + Cc1ccccc1N=Nc1ccc(NC(=O)c2ccnn2C)c(C)c1 . Output its pIC50 only.
6.81

* * *

Recorded pIC50 values for a group of compounds are listed next.
- Test system: 699152-130-R-J1-PDC complex spheroid growth
- test: Anticancer human tumor 699152-130-R-J1-PDC cell line growth inhibition [AhR];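 further: compound exposure lasted 7 days after spheroids had grown for 3 days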
- run_conditions: curve of first compound; second compound 10 µM
pIC50: −log10 of the molar value.

compound	assay_system	data_value
CC1(C)CCC(CN2CCN(c3ccc(C(=O)NS(=O)(=O)c4ccc(NCC5CCOCC5)c([N+](=O)[O-])c4)c(Oc4cnc5[nH]ccc5c4)c3)CC2)=C(c2ccc(Cl)cc2)C1 + Cc1cncc(-c2nc(NCCc3c[nH]c4ccccc34)c3ncn(C(C)C)c3n2)c1	699152-130-R-J1-PDC complex spheroid growth	> 7.50
NS(=O)(=O)OCC1CC(n2ccc3c(NC4CCc5ccccc54)ncnc32)CC1O (stereo unspecified) + Cc1ccccc1N=Nc1ccc(NC(=O)c2ccnn2C)c(C)c1	699152-130-R-J1-PDC complex spheroid growth	6.27
COc1cc(Nc2ncc3c(n2)-c2ccc(Cl)cc2C(c2c(F)cccc2OC)=NC3)ccc1C(=O)O + CC(CO)NC(=O)c1cc(-c2ccc(Cl)cc2)nn(-c2cnn(C)c2)c1=O	699152-130-R-J1-PDC complex spheroid growth	< 5.00
CCN(c1cc(-c2ccc(CN3CCOCC3)cc2)cc(C(=O)NCc2c(C)cc(C)[nH]c2=O)c1C)C1CCOCC1 + Cc1ccccc1N=Nc1ccc(NC(=O)c2ccnn2C)c(C)c1	699152-130-R-J1-PDC complex spheroid growth	< 5.52
COc1cc(C2c3cc4c(cc3C(OC3OC5COC(C)OC5C(O)C3O)C3COC(=O)C23)OCO4)cc(OC)c1O (stereo unspecified) + CC(CO)NC(=O)c1cc(-c2ccc(Cl)cc2)nn(-c2cnn(C)c2)c1=O	699152-130-R-J1-PDC complex spheroid growth	5.11

// Input: Nc1ncn(C2CC(O)C(CO)O2)c(=O)n1 (stereo unspecified) + CC(CO)NC(=O)c1cc(-c2ccc(Cl)cc2)nn(-c2cnn(C)c2)c1=O . Output its pIC50 only.
< 6.00

// Input: Nc1ccn(C2OC(CO)C(O)C2(F)F)c(=O)n1 (stereo unspecified) + Cc1ccccc1N=Nc1ccc(NC(=O)c2ccnn2C)c(C)c1 . Output its pIC50 only.
5.76

// Input: COc1cccc2c1C(=O)c1c(O)c3c(c(O)c1C2=O)CC(O)(C(=O)CO)CC3OC1CC(N)C(O)C(C)O1 (stereo unspecified) + CC(CO)NC(=O)c1cc(-c2ccc(Cl)cc2)nn(-c2cnn(C)c2)c1=O . Output its pIC50 only.
6.49

// Input: COc1cccc2c1C(=O)c1c(O)c3c(c(O)c1C2=O)CC(O)(C(=O)CO)CC3OC1CC(N)C(O)C(C)O1 (stereo unspecified) + Cc1ccccc1N=Nc1ccc(NC(=O)c2ccnn2C)c(C)c1 . Output its pIC50 only.
6.67

// Input: Nc1ccccc1NC(=O)c1ccc(CNC(=O)OCc2cccnc2)cc1 + Cc1cncc(-c2nc(NCCc3c[nH]c4ccccc34)c3ncn(C(C)C)c3n2)c1 . Output its pIC50 only.
> 7.50

// Input: Nc1ccn(C2OC(CO)C(O)C2(F)F)c(=O)n1 (stereo unspecified) + Cc1cncc(-c2nc(NCCc3c[nH]c4ccccc34)c3ncn(C(C)C)c3n2)c1 . Output its pIC50 only.
> 7.50

// Input: COc1cc(C2c3cc4c(cc3C(OC3OC5COC(C)OC5C(O)C3O)C3COC(=O)C23)OCO4)cc(OC)c1O (stereo unspecified) + Cc1ccccc1N=Nc1ccc(NC(=O)c2ccnn2C)c(C)c1 . Output its pIC50 only.
< 5.00

// Input: NS(=O)(=O)OCC1CC(n2ccc3c(NC4CCc5ccccc54)ncnc32)CC1O (stereo unspecified) + CC(CO)NC(=O)c1cc(-c2ccc(Cl)cc2)nn(-c2cnn(C)c2)c1=O . Output its pIC50 only.
6.22

// Input: CC1COCCN1c1cc(-c2ccnn2C)c2ccnc(-c3ccn[nH]3)c2n1 (stereo unspecified) + CC(CO)NC(=O)c1cc(-c2ccc(Cl)cc2)nn(-c2cnn(C)c2)c1=O . Output its pIC50 only.
< 6.00

// Input: Cn1ncnc1C1c2n[nH]c(=O)c3cc(F)cc(c23)NC1c1ccc(F)cc1 (stereo unspecified) + Cc1cncc(-c2nc(NCCc3c[nH]c4ccccc34)c3ncn(C(C)C)c3n2)c1 . Output its pIC50 only.
> 9.50

// Input: COc1cc(Nc2ncc3c(n2)-c2ccc(Cl)cc2C(c2c(F)cccc2OC)=NC3)ccc1C(=O)O + Cc1ccccc1N=Nc1ccc(NC(=O)c2ccnn2C)c(C)c1 . Output its pIC50 only.
< 5.00
